Every entry's value here was drawn from patent US20250186405A1.

# experiment: Part 5 NT2: plasma pharmacokinetics, single doses
# Assay type: in vivo, human
# condition.notes: human, plasma, oral, 25 mg, NT2, plasma, median, N = 9; read-out: Tmax
property.name: Tmax (h)
Answer in h, number only, no unit symbol.

Name the recorded Tmax for CS(=O)(=O)N[C@H]1CCCN2C(=O)COc3ccccc3C3CCC(CC3)OCC12 (stereo partly shown) [Compound A] .
3

###

# experiment: Part 1 SAD: plasma pharmacokinetics after single oral dose
# Type: in vivo, human
# condition.notes: human, plasma, oral; 50 mg single dose, geometric mean
property.name: AUC(0-t) (ng·h/mL)
Hi! Could you send only the number? It should be in ng·h/mL, unit omitted.

For the compound CS(=O)(=O)N[C@H]1CCCN2C(=O)COc3ccccc3C3CCC(CC3)OCC12 (stereo partly shown) , what AUC(0-t) is on record?
357

###

# experiment: Part 1 SAD: plasma pharmacokinetics after single oral dose
# Assay type: in vivo, human
# condition.notes: human, plasma, oral; 3 mg single dose, geometric mean, N = 3
property.name: half-life

half-life lookup needed for CS(=O)(=O)N[C@H]1CCCN2C(=O)COc3ccccc3C3CCC(CC3)OCC12 (stereo partly shown) , thanks.
2.31 h

###

# experiment: Part 1 SAD: plasma pharmacokinetics after single oral dose
# Type: in vivo, human
# condition.notes: human, plasma, oral; 15 mg single dose, geometric mean
property.name: Cmax
Mention the unit after the number when you answer.

Which measured Cmax value corresponds to CS(=O)(=O)N[C@H]1CCCN2C(=O)COc3ccccc3C3CCC(CC3)OCC12 (stereo partly shown) ?
22.1 ng/mL

###

# experiment: Part 2 MAD: plasma pharmacokinetics, once daily for 10 days
# Format: in vivo, human
# condition.notes: human, plasma, oral, 25 mg, Day 10, geometric mean
# Procedure: Part 2 of the study is a MAD evaluation in healthy subjects consisting of 4 cohorts: Cohorts 1-4 received powder-in-capsule or matching placebo. Dose levels were as follows: Blood samples (up to 5 mL per sample) were collected for PK analysis of Compound A and its metabolite(s). The actual time of sample collection was recorded. The PK samples of the subjects randomized to placebo treatment were not analyzed. […]
property.name: half-life (h)
Express your answer in h, writing the number without its unit.

Which half-life is listed for CS(=O)(=O)N[C@H]1CCCN2C(=O)COc3ccccc3C3CCC(CC3)OCC12 (stereo partly shown) ?
15.9

###

# experiment: Part 2 MAD: plasma pharmacokinetics, once daily for 10 days
# Format: in vivo, human
# condition.notes: 8 mg
property.name: Accumulation ratio (Day 10/Day 1) AUC0-24
# output: bare number, no unit

Name the recorded Accumulation ratio (Day 10/Day 1) AUC0-24 for CS(=O)(=O)N[C@H]1CCCN2C(=O)COc3ccccc3C3CCC(CC3)OCC12 (stereo partly shown) .
1.36

###

# experiment: Part 6 IH: plasma pharmacokinetics, single doses
# Assay type: in vivo, human
# condition.notes: human, oral; 25 mg, IH, plasma, geometric mean, N = 8
property.name: Cmax (ng/mL)
Hi! Could you send only the number? It should be in ng/mL, unit omitted.

Looking for the measured Cmax of CS(=O)(=O)N[C@H]1CCCN2C(=O)COc3ccccc3C3CCC(CC3)OCC12 (stereo partly shown) , can you help?
32.2
